// data source = patent US20130230533A1

SYSTEM_UNDER_TEST: T1, Monomeric human CD48-mmH (human)
T1 chain: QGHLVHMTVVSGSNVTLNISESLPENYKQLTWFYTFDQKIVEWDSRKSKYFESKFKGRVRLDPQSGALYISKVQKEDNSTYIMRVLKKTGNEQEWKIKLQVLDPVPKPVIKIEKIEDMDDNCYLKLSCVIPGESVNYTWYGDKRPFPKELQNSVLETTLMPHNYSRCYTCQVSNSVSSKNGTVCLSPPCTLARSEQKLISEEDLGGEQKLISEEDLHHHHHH
METHOD_DESCRIPTION: SPR (Biacore), antibody captured by anti-Fc, CD48 in solution, 37 C
Simple rule here: kon less than 300000 M⁻¹ s⁻¹ is TRUE, otherwise FALSE.

| BINDER | CAT |
| --- | --- |
| H4H1713N (antibody, V domains shown, Human IgG4 Fc (H4H)) VH: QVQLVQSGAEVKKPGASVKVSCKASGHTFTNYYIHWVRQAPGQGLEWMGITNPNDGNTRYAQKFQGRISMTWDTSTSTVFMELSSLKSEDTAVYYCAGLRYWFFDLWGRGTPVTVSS VL: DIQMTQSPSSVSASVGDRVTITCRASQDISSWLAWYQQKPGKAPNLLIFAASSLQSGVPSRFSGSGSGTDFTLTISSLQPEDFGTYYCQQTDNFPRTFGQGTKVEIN | TRUE |
| H4H1779P (antibody, human IgG4, V domains shown, Human IgG4 Fc (H4H)) VH: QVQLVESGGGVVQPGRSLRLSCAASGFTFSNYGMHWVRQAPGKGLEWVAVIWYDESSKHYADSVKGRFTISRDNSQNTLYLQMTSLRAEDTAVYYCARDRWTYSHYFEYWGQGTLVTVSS VL: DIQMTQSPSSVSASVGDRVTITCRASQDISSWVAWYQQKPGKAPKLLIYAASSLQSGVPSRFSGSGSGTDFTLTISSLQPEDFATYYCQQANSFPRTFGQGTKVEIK | TRUE |
| H2M1763N (antibody, mouse IgG2, V domains shown, Human variable domains, mouse IgG2 Fc (H2M)) VH: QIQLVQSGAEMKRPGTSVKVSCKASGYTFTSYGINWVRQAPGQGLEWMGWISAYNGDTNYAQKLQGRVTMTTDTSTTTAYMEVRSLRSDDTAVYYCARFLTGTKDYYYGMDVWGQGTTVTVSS VL: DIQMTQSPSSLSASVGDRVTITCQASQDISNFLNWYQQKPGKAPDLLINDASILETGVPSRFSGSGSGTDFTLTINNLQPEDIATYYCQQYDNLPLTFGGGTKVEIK | FALSE |
| H4H1707N (antibody, V domains shown, Human IgG4 Fc (H4H)) VH: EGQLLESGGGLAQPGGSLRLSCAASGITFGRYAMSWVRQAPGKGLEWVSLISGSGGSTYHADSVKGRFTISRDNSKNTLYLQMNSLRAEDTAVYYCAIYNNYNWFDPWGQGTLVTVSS VL: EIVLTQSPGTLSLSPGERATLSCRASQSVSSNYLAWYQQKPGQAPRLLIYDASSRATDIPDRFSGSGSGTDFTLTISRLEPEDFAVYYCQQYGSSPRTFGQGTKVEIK | TRUE |
| H4H1778P (antibody, human IgG4, V domains shown, Human IgG4 Fc (H4H)) VH: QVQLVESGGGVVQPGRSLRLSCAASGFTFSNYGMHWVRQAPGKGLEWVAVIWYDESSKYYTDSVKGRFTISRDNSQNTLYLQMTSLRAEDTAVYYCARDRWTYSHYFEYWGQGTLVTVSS VL: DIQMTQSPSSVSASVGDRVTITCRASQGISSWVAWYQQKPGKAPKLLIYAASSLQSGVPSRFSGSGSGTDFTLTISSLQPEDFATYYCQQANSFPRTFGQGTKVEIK | TRUE |
